# system: T1, recombinant BACE1 (BACE1 extracellular domain, R&D Systems Cat#931-AS) (UniProt P56817 22-457)
# T1 construct: extracellular domain; also called BACE1 extracellular domain protein
# T1 sequence (P56817 22-457): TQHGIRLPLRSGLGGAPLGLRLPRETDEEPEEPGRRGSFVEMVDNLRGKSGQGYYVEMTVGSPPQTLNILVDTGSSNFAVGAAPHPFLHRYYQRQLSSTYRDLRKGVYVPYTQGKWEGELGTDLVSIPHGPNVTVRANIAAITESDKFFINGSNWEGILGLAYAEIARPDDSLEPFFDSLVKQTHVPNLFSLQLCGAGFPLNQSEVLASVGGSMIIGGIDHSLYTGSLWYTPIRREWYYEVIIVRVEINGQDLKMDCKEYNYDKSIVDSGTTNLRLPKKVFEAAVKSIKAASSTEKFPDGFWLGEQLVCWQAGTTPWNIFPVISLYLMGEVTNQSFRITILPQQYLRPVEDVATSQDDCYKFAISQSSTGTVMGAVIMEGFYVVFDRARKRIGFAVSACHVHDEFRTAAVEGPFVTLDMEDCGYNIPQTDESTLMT
# assay_text: SPR Biacore
Binary call on Kd with cut-off 30 nM: strictly below means criterion met, and equality or higher means criterion not met.

1) hu2H8v14 (antibody, V domains shown, humanized; also called hu2H8_HC2 + hu2H8_LC3) VH: QVQLVQSGAEVKKPGASVKVSCKASGYTFTNFWIHWLRQAPGQGLEWMGMIDPSDSYTKYNQKFKARVTMTRDTSTSTTYMELSSLRSEDTAVYYCARSGVAFPYWGQGTLVTVSS VL: DIQMTQSPSSLSASVGDRVTITCKASQDVGRNVAWYQQKPGKAPKSLIYSASHRYSGVPSRFSGSGSGTDFTLTISSLQPEDFATYYCQQYNSYPYTFGQGTKVEIK | criterion met
2) hu2H8v27 (antibody, V domains shown, humanized; also called hu2H8_HC3 + hu2H8_LC5) VH: QVQLVQSGAEVKKPGASVKVSCKASGYTFTNFWIHWLRQAPGQGLEWMGMIDPSDSYTKYNQKFKARVTMTVDTSTSTTYMELSSLRSEDTAVYYCARSGVAFPYWGQGTLVTVSS VL: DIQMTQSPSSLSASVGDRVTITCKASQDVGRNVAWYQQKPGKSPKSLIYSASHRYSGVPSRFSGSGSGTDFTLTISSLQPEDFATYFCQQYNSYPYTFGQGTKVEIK | criterion met
3) hu2H8v12 (antibody, V domains shown, humanized; also called hu2H8_HC7 + hu2H8_LC2) VH: QVQLVQSGAEVKKPGASVKVSCKASGYTFTNFWIHWLRQAPGQGLEWMGMIDPSDSYTKYNQKFKARATLTVDTSTSTTYMELSSLRSEDTAVYYCARSGVAFPYWGQGTLVTVSS VL: DIQMTQSPSSLSASVGDRVTITCKASQDVGRNVAWYQQKPGKSPKLLIYSASHRYSGVPSRFSGSGSGTDFTLTISSLQPEDFATYYCQQYNSYPYTFGQGTKVEIK | criterion not met
4) hu2H8v30 (antibody, V domains shown, humanized; also called hu2H8_HC7 + hu2H8_LC5) VH: QVQLVQSGAEVKKPGASVKVSCKASGYTFTNFWIHWLRQAPGQGLEWMGMIDPSDSYTKYNQKFKARATLTVDTSTSTTYMELSSLRSEDTAVYYCARSGVAFPYWGQGTLVTVSS VL: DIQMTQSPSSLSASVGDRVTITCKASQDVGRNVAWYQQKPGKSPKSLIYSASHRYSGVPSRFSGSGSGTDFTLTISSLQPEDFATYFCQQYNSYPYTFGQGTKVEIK | criterion met
5) hu2H8v8 (antibody, V domains shown, humanized; also called hu2H8_HC2 + hu2H8_LC2) VH: QVQLVQSGAEVKKPGASVKVSCKASGYTFTNFWIHWLRQAPGQGLEWMGMIDPSDSYTKYNQKFKARVTMTRDTSTSTTYMELSSLRSEDTAVYYCARSGVAFPYWGQGTLVTVSS VL: DIQMTQSPSSLSASVGDRVTITCKASQDVGRNVAWYQQKPGKSPKLLIYSASHRYSGVPSRFSGSGSGTDFTLTISSLQPEDFATYYCQQYNSYPYTFGQGTKVEIK | criterion not met
6) hu2H8v2 (antibody, V domains shown, humanized; also called hu2H8_HC2 + hu2H8_LC1) VH: QVQLVQSGAEVKKPGASVKVSCKASGYTFTNFWIHWLRQAPGQGLEWMGMIDPSDSYTKYNQKFKARVTMTRDTSTSTTYMELSSLRSEDTAVYYCARSGVAFPYWGQGTLVTVSS VL: DIQMTQSPSSLSASVGDRVTITCKASQDVGRNVAWYQQKPGKAPKLLIYSASHRYSGVPSRFSGSGSGTDFTLTISSLQPEDFATYYCQQYNSYPYTFGQGTKVEIK | criterion not met
7) hu2H8v23 (antibody, V domains shown, humanized; also called hu2H8_HC6 + hu2H8_LC4) VH: QVQLVQSGAEVKKPGASVKVSCKASGYTFTNFWIHWVRQAPGQGLEWMGMIDPSDSYTKYNQKFKARATLTVDTSTSTVYMELSSLRSEDTAVYYCARSGVAFPYWGQGTLVTVSS VL: DIQMTQSPSSLSASVGDRVTITCKASQDVGRNVAWYQQKPGKSPKSLIYSASHRYSGVPSRFSGSGSGTDFTLTISSLQPEDFATYYCQQYNSYPYTFGQGTKVEIK | criterion met
8) hu2H8v16 (antibody, V domains shown, humanized; also called hu2H8_HC5 + hu2H8_LC3) VH: QVQLVQSGAEVKKPGASVKVSCKASGYTFTNFWIHWVRQAPGQGLEWMGMIDPSDSYTKYNQKFKARATLTRDTSTSTVYMELSSLRSEDTAVYYCARSGVAFPYWGQGTLVTVSS VL: DIQMTQSPSSLSASVGDRVTITCKASQDVGRNVAWYQQKPGKAPKSLIYSASHRYSGVPSRFSGSGSGTDFTLTISSLQPEDFATYYCQQYNSYPYTFGQGTKVEIK | criterion met
9) hu2H8v13 (antibody, V domains shown, humanized; also called hu2H8_HC1 + hu2H8_LC3) VH: QVQLVQSGAEVKKPGASVKVSCKASGYTFTNFWIHWVRQAPGQGLEWMGMIDPSDSYTKYNQKFKARVTMTRDTSTSTTYMELSSLRSEDTAVYYCARSGVAFPYWGQGTLVTVSS VL: DIQMTQSPSSLSASVGDRVTITCKASQDVGRNVAWYQQKPGKAPKSLIYSASHRYSGVPSRFSGSGSGTDFTLTISSLQPEDFATYYCQQYNSYPYTFGQGTKVEIK | criterion met
10) hu2H8v6 (antibody, V domains shown, humanized; also called hu2H8_HC7 + hu2H8_LC1) VH: QVQLVQSGAEVKKPGASVKVSCKASGYTFTNFWIHWLRQAPGQGLEWMGMIDPSDSYTKYNQKFKARATLTVDTSTSTTYMELSSLRSEDTAVYYCARSGVAFPYWGQGTLVTVSS VL: DIQMTQSPSSLSASVGDRVTITCKASQDVGRNVAWYQQKPGKAPKLLIYSASHRYSGVPSRFSGSGSGTDFTLTISSLQPEDFATYYCQQYNSYPYTFGQGTKVEIK | criterion not met
